Reported pIC50 values follow for various compounds
experimental system: full length Keap1 protein / full length NRF2 protein (Homo sapiens, UniProt Q14145)
Construct: full length NRF2 protein and full length Keap1 protein (Keap1 exists a dimer) are used; His
Sequence (Q14145 whole entry): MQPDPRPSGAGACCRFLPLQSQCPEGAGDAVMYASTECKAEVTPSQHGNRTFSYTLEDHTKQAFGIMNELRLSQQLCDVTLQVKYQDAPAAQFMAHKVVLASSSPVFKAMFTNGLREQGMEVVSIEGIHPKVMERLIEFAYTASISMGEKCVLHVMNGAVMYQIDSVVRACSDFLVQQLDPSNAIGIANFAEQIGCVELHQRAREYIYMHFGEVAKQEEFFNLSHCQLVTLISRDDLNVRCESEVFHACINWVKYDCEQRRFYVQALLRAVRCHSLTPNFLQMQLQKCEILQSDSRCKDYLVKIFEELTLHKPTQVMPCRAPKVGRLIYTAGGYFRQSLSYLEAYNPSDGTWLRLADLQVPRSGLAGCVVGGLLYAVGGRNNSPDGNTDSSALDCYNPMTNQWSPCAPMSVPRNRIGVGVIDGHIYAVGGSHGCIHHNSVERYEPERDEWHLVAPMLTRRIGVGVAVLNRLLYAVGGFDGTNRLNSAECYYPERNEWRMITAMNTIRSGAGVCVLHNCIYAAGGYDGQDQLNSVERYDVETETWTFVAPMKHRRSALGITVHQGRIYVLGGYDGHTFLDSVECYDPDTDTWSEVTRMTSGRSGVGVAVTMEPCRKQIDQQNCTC
procedure text: NRF2-Keap1 TR-FRET Assay
Type: binding
test conditions: 25 nM Keap1-FlagHis and 50 nM biotin-NRF2 added
pIC50: −log10 of the molar value.

Known results for compounds:
Cn1cc([C@H]2C[C@@H]2c2c(C(=O)O)cnn2-c2cccc(-c3cccc(C(=O)N4CCCC(C)(C)C4)c3F)c2)nn1 (racemic): 7.00 to 8.00
CCC1Cc2ccccc2CN(Cc2cccc(-c3cccc(-n4ncc(C(=O)O)c4[C@@H]4C[C@H]4c4cn(C)nn4)c3)c2)C1 (relative stereo): 6.00 to 7.00
CCC[C@@H]1CCCCN1C(=O)c1cccc(-c2cccc(-n3ncc(C(=O)O)c3C3CC3(F)F)c2)c1 (stereo partly shown): 6.00 to 7.00
CCCN(CC1CC1)C(=O)c1cccc(-c2cccc(-n3ncc(C(=O)O)c3C3CC3)c2)c1F: 5.00 to 6.00
CCc1nc(-c2cccc(-c3cccc(-n4ncc(C(=O)O)c4C4CC4)c3)c2)no1: 4.00 to 5.00

Give pIC50 (full length Keap1 protein / full length NRF2 protein (Homo sapiens, UniProt Q14145)) of the following compound: Cc1ccnn1-c1cccc(-c2cccc(-n3ncc(C(=O)O)c3C3CC3)c2)c1F
5.00 to 6.00

Form: Entry = CC(Oc1cccc(-c2cccc(-n3ncc(C(=O)O)c3[C@H]3C[C@@H]3c3cn(C)nn3)c2)c1)C1CCCCC1 (single isomer, unassigned) [Example 191] | System = full length Keap1 protein / full length NRF2 protein (Homo sapiens, UniProt Q14145) | pIC50 = ____
6.00 to 7.00
